System: NCI-H522
Assay: NCI tumour cell line growth inhibition, 48 h
Active and inactive are the calls of the source. Rule as the data show it: active = GI50 up to about 1.1 µM and inactive = higher.
Catalogue of GI50 readings, one per entry.
endpoint.name: GI50

compound | result
Nc1ccc2c(=S)c3ccccc3[nH]c2c1 | 46.8 µM (inactive)
NC(N)=NCc1ccc2c(c1)OCO2 | > 100 µM (inactive)
CC(O)C(C(=O)O)N(CC1(O)OCC(O)C(O)C1O)N=O (configuration not stated) | > 100 µM (inactive)
NC1NCCC(=O)N1CCc1c[nH]c2ccccc12 (configuration not stated) | 87.5 µM (inactive)
CCOC(=O)c1nc2ccccc2nc1Nc1ccc(C(=O)OC)s1 | 47.4 µM (inactive)
CCOC(=O)c1nc2ccc(C(F)(F)F)cc2nc1NCc1ccc(OC)c(OC)c1 | 30.6 µM (inactive)
CN(C)/C=N/c1c2ccccc2nc2ccccc12 | 2.01 µM (inactive)
Cc1nc(N2N=C(c3ccc(Cl)cc3)CCC2=O)sc1[N+](=O)[O-] | > 100 µM (inactive)
CCOC(=O)c1nc2cc(C(F)(F)F)ccc2nc1Nc1ccc(C(=O)OC)s1 | 19.7 µM (inactive)
CCOC1NC(=O)c2ccccc21 (configuration not stated) | > 100 µM (inactive)
CCn1c(-c2cc3ccccc3cc2OC(C)=O)n[nH]c1=S | 16.1 µM (inactive)
Nc1nc2c3c(ncn3CC(O)CO2)n1 (configuration not stated) | > 100 µM (inactive)
